# Tested on: MOLT-4 leukemia
# Protocol details: NCI tumour cell line growth inhibition, 48 h
Property label: TGI

Asked: What value of TGI has been reported for the following compound? CC(C)(C)OC(=O)n1cc(CNC(=S)Nc2ccccc2)c2ccccc21
Given back: > 100 µM

Asked: What value of TGI has been reported for the following compound? Clc1nc(Cl)nc(NC23CC4CC(CC(C4)C2)C3)n1
Given back: 51.2 µM

Asked: What value of TGI has been reported for the following compound? COc1ccc(Nc2[nH]c(C(C)=O)c(N)c2C(=S)Nc2ccccc2)cc1
Given back: > 100 µM

Asked: What value of TGI has been reported for the following compound? Cc1cn(C2C=CC(COP(=O)(OCC3=CC(=O)c4ccccc4C3=O)N(C)CCCCCl)O2)c(=O)[nH]c1=O (centres undefined)
Given back: 0.769 µM

Asked: What value of TGI has been reported for the following compound? Cc1ccccc1C1OC1C(=O)c1ccccc1N (centres undefined)
Given back: > 100 µM

Asked: What value of TGI has been reported for the following compound? Cc1ccc2c(c1C)CC1(Cc3c(ccc4c3CCC4)C1=O)C2=O (centres undefined)
Given back: > 100 µM

Asked: What value of TGI has been reported for the following compound? O=C(NNc1nc2c(F)cccc2n2cccc12)c1cnccn1
Given back: > 100 µM

Asked: What value of TGI has been reported for the following compound? CCOC(=O)C1=C(C)N(c2ccccc2)C2=C(C(=O)N(c3ccccc3)C2c2ccccc2)C1c1ccccc1 (centres undefined)
Given back: > 100 µM

Asked: What value of TGI has been reported for the following compound? N#C/C(=C\NC(=S)Nc1ccc(S(=O)(=O)Nc2ccccn2)cc1)C(N)=O
Given back: > 100 µM

Asked: What value of TGI has been reported for the following compound? CCn1cc(C(c2ccc(Cl)cc2)n2ccnc2)c2cc(Br)ccc21 (centres undefined)
Given back: > 100 µM

Asked: What value of TGI has been reported for the following compound? COC(=O)C(=O)CC(=O)CCn1ncc(Cl)c(Cl)c1=O
Given back: 22.1 µM

Asked: What value of TGI has been reported for the following compound? CC(=O)OCC1OC(O[C@@H]2C[C@H]3C(C)(C)[C@H](OC(C)=O)CC[C@]3(C)[C@H]3CCC4=C([C@@H](C)C[C@@H](O)[C@H](O)C(C)(C)O)CC[C@@]4(C)[C@@]32C)C(O)C(O)C1O (some centres undefined)
Given back: 35.3 µM

Asked: What value of TGI has been reported for the following compound? CN(C)/C(=N/C(=S)Nc1ccccc1)SCc1ccccc1
Given back: > 100 µM

Asked: What value of TGI has been reported for the following compound? CCCCN(CC)c1nc(C)nc2c1c(C)c(C)n2-c1c(C)cc(C)cc1C
Given back: 30.1 µM

Asked: What value of TGI has been reported for the following compound? Nc1nc(Cl)cc(NCC2(CO)CC(CCc3ccccc3)C2)n1 (centres undefined)
Given back: > 100 µM

Asked: What value of TGI has been reported for the following compound? C[C@@H]1CC[C@H]2C(COCC3=C(C(F)(F)F)O[C@@H]4O[C@@]5(C)CC[C@H]6[C@H](C)CC[C@@H]3[C@@]46OO5)=C(C(F)(F)F)O[C@@H]3O[C@@]4(C)CC[C@@H]1[C@]32OO4
Given back: > 100 µM

Asked: What value of TGI has been reported for the following compound? FC(F)(F)c1nc(-c2ccccc2Cl)[nH]c1C(F)(F)F
Given back: > 29.5 µM

Asked: What value of TGI has been reported for the following compound? O=C(/C=C/c1ccc(Cl)cc1)c1ccc(Cl)cc1Cl
Given back: 2.12 µM

Asked: What value of TGI has been reported for the following compound? COc1ccc(C2C(Cl)C(=O)N2NC(=O)c2ccc(NC(C)=O)cc2)cc1 (centres undefined)
Given back: > 100 µM

----------
# Test system: MOLT-4 leukemia
# Protocol details: NCI tumour cell line growth inhibition, 48 h; in the data active means GI50 below about 0.43 µM; inactive means the rest
The reply should name one outcome from active, inactive

Asked: Each compound tested received a call. Report the one for CCCCCCCCCCCCC(=O)OC(c1cnco1)c1nc(C(O)CC(O)C(O)C(C)O)co1 (centres undefined) .
Given back: inactive

Asked: Each compound tested received a call. Report the one for O=C(CSc1nc2ccc([N+](=O)[O-])cc2[nH]1)Nc1ccc(F)c(Cl)c1 .
Given back: inactive

Asked: Each compound tested received a call. Report the one for CNC(=O)c1ccccc1CC1(O)c2ccccc2Oc2ccccc21 .
Given back: inactive

Asked: Each compound tested received a call. Report the one for C[C@@H]1CC[C@@H]2[C@@H]1[C@H](OC(=O)/C=C/c1ccccc1)[C@]1(c3ccccc3)C[C@@H](OC(=O)CO)[C@@]2(C)O1 .
Given back: inactive

Asked: Each compound tested received a call. Report the one for CN1CCN(Cc2ccc(C(=O)Nc3cncc(C#Cc4cnc(N)c5ccccc45)c3)cc2C(F)(F)F)CC1 .
Given back: inactive

Asked: Each compound tested received a call. Report the one for CCn1c(-c2nonc2N)nc2c(C#CCN)ncc(OCCCN)c21 .
Given back: inactive

Asked: Each compound tested received a call. Report the one for N#Cc1c(NC(=O)c2cccc(C(F)(F)F)c2)sc2c1CCC(=O)C2 .
Given back: active

Asked: Each compound tested received a call. Report the one for COc1cc2ncn(-c3cc(OCc4ccccc4Cl)c(C(N)=O)s3)c2cc1OC .
Given back: active

Asked: Each compound tested received a call. Report the one for CC(=O)[CH-]C(=O)c1ccccc1.CC(=O)[CH-]C(=O)c1ccccc1.CCCCCCCCCCCCCCCCCC(=O)[O-].CCCCCCCCCCCCCCCCCC(=O)[O-].[Ti+4] .
Given back: inactive

----------
# System: SF-295 CNS
# Protocol details: NCI tumour cell line growth inhibition, 48 h; in the data active means GI50 below about 0.43 µM; inactive means the rest
The reply should name one outcome from T = active, F = inactive

Asked: Each compound tested received a call. Report the one for Cc1nn(-c2ccc(F)cc2)c2ncnc(Nc3ccc(NC(=O)Nc4ccc(Cl)c(C(F)(F)F)c4)cc3)c12 .
Given back: F

Asked: Each compound tested received a call. Report the one for CC1(C)N=C(N)N=C(N)N1c1ccc(CCCCc2ccc(S(=O)(=O)F)cc2)cc1 .
Given back: F

Asked: Each compound tested received a call. Report the one for Cc1cc2nc3c4cc(Cl)ccc4n(CCN(C)C)c3nc2cc1C .
Given back: F

Asked: Each compound tested received a call. Report the one for C1COCCN1.C1COCCN1.N.N.[Cl-].[Pt+2] .
Given back: F

Asked: Each compound tested received a call. Report the one for Cc1[nH]c(/C=C2\C(=O)Nc3ccc(S(=O)(=O)Cc4c(Cl)cccc4Cl)cc32)c(C)c1C(=O)N1CCC[C@@H]1CN1CCCC1 .
Given back: F

Asked: Each compound tested received a call. Report the one for Brc1cccc(-c2cc(-c3ccc4c(c3)OCCO4)[nH]n2)c1 .
Given back: F

Asked: Each compound tested received a call. Report the one for COc1cc2ncn(-c3cc(OCc4ccccc4Cl)c(C(N)=O)s3)c2cc1OC .
Given back: T

Asked: Each compound tested received a call. Report the one for C=C1C(=O)O[C@H]2[C@H]1CC/C(CNC(=O)c1c[nH]c3ccc(F)cc13)=C\CC[C@@]1(C)O[C@@H]21 .
Given back: F

Asked: Each compound tested received a call. Report the one for CNC(=O)c1ccccc1CC1(O)c2ccccc2Oc2ccccc21 .
Given back: F

----------
Please respond with reported GI50 for every item in the list.
# Tested on: OVCAR-3 ovarian
# Protocol details: NCI tumour cell line growth inhibition, 48 h

Asked: What value of GI50 has been reported for the following compound? COc1cc2c3c(cccc3c1)C(=O)N(CCN1CCCC1)C2=O
Given back: 2.3 µM

Asked: What value of GI50 has been reported for the following compound? CN1CCN(Cc2ccc(C(=O)Nc3cncc(C#Cc4cnc(N)c5ccccc45)c3)cc2C(F)(F)F)CC1
Given back: 1.95 µM

Asked: What value of GI50 has been reported for the following compound? COc1ccc(/C=C/C=C(/C#N)C(N)=S)cc1
Given back: 15.5 µM

Asked: What value of GI50 has been reported for the following compound? C=C1CCC2C(/C=C(\C)CCC1O)OC(=O)C2C (stereo not given)
Given back: > 100 µM

Asked: What value of GI50 has been reported for the following compound? COc1ccc(C(=S)N2CCN(c3cccc(Cl)c3)CC2)cc1
Given back: > 100 µM

----------
# Tested on: SK-MEL-28 melanoma
# Protocol details: NCI tumour cell line growth inhibition, 48 h
Property label: GI50

Asked: What value of GI50 has been reported for the following compound? N#Cc1c(NC(=O)c2cccc(C(F)(F)F)c2)sc2c1CCC(=O)C2
Given back: 0.526 µM

Asked: What value of GI50 has been reported for the following compound? Cc1cc2nc3c4cc(Cl)ccc4n(CCN(C)C)c3nc2cc1C
Given back: 2 µM

Asked: What value of GI50 has been reported for the following compound? O=C(c1ccc2ccccc2c1)c1c(C(F)(F)F)n([O-])c2cc(Cl)c(Cl)cc2[n+]1=O
Given back: 1.74 µM

Asked: What value of GI50 has been reported for the following compound? C1COCCN1.C1COCCN1.N.N.[Cl-].[Pt+2]
Given back: > 100 µM

Asked: What value of GI50 has been reported for the following compound? CN1CCN(Cc2ccc(C(=O)Nc3cncc(C#Cc4cnc(N)c5ccccc45)c3)cc2C(F)(F)F)CC1
Given back: 1.75 µM

Asked: What value of GI50 has been reported for the following compound? NC(CO)Cc1cnc[nH]1 (stereo not drawn)
Given back: > 100 µM

Asked: What value of GI50 has been reported for the following compound? C=C1C(O)C2CCC(C)(C)C(=O)C2=C(CC(C)C)C12CC2 (stereo not drawn)
Given back: 43.6 µM

Asked: What value of GI50 has been reported for the following compound? CC(C)(C)OC(=O)n1cc(CNC(=S)Nc2ccccc2)c2ccccc21
Given back: 27.4 µM

Asked: What value of GI50 has been reported for the following compound? COc1ccc(/C=C/C=C(/C#N)C(N)=S)cc1
Given back: 23.8 µM

Asked: What value of GI50 has been reported for the following compound? C=C1C(=O)O[C@H]2[C@H]1CC/C(CNC(=O)c1c[nH]c3ccc(F)cc13)=C\CC[C@@]1(C)O[C@@H]21
Given back: 1.33 µM

Asked: What value of GI50 has been reported for the following compound? C=C1CCC2C(/C=C(\C)CCC1O)OC(=O)C2C (stereo not drawn)
Given back: > 100 µM

Asked: What value of GI50 has been reported for the following compound? Oc1ccccc1/C=N/Nc1ccc2ccccc2n1
Given back: 11.8 µM

Asked: What value of GI50 has been reported for the following compound? C[C@@H]1CC[C@@H]2[C@@H]1[C@H](OC(=O)/C=C/c1ccccc1)[C@]1(c3ccccc3)C[C@@H](OC(=O)CO)[C@@]2(C)O1
Given back: 16.3 µM

The measurements presented in this section are drawn from PubChem BioAssay (NCI).
